TARGET_ENTITY: T1, cynomolgus monkey EpoR (cynoEpoR) (cynomolgus monkey, UniProt A0A2K5WKK4 25-250)
T1 construct: Soluble protein (coated in ELISA, analyte in SPR)
T1 sequence: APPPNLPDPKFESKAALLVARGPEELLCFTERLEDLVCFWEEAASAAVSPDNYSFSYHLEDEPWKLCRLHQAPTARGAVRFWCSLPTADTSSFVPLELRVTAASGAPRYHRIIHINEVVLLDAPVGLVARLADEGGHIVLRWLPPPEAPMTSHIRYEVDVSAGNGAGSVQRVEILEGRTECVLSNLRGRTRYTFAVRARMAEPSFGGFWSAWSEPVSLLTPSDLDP
METHOD_DESCRIPTION: SPR, Biacore T100; scFv-Fc captured on anti-human IgG Fc CM5 chip, EpoR as analyte; 1:1 fit;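 note: measured at 25 °C in HBS-EP buffer with 0.1 mg/ml BSA, flowed at 50 µl/min, 1 min association then dissociation (10 min human, 5 min cyno EpoR)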

[
  {
    "BINDER": "Mxb 319 (clone 319 scFv-Fc protein) (Fc fusion, Tested as scFv-Fc (maxibody) with an Fc derived from human IgG1) VH: QVQLVQSGAEIKKPGASVKVSCKTFGSPFSTNDIHWVRQAPGQGLEWMGIIDTSGAMTRYAQKFQGRVTVTRETSTSTVYMELSSLKSEDTAVYYCAREGCTNGVCYDNGFDIWGQGTLVTVSS VL: DIQMTQSPSTLSASIGDRVTITCRASEGIYHWLAWYQQKPGKAPKLLIYKASSLASGAPSRFSGSGSGTDFTLTISSLQPDDFATYYCQQYSNYPLTFGGGTKLEIK",
    "koff": "0.0258 s⁻¹"
  },
  {
    "BINDER": "Mxb 307 (clone 307 scFv-Fc protein) (Fc fusion, Tested as scFv-Fc (maxibody) with an Fc derived from human IgG1) VH: EVQLVESGGGLVQPGGSLRLSCAVSGFTFSKYWMTWVRQAPGKGLEWVANIKPDGSEKYYVESVKGRFTISRDNAKNSVYLQMNSVRAEDTAVYYCARVSRGGSFSDWGQGTMVTVSS VL: QSVLTQPPSASGSPGQSVTISCTGTSSDVGGYNYVSWYQQHPDKAPRLMIYDVNKRPSGVPDRFSGSKSGNTASLTVSGLQAEDEAHYYCNSYAGSNNWVFGGGTQLTVL",
    "koff": "0.361 s⁻¹"
  },
  {
    "BINDER": "Mxb 15 (clone 15 scFv-Fc protein) (Fc fusion, Tested as scFv-Fc (maxibody) with an Fc derived from human IgG1) VH: QVQLQESGPGLVRPSGTLSLTCAVSGGSIGSSNWWSWVRQAPGKGLEWIGEISQSGSTNYNPSLKGRVTISLDRSRNQLSLKLSSVTAADTAVYYCARQLRSIDAFDIWGPGTTVTVSA VL: SYVLTQPPSVSVSPGLTATITCSGDKLGDKYASWYQQKPGQSPVLVIYQDRKRPSGIPERFSGSNSGNTATLTISGTQAVDEADYYCQAWDSDTSYVFGTGTQLTVL",
    "koff": "0.115 s⁻¹"
  },
  {
    "BINDER": "Mxb 16 (clone 16 scFv-Fc protein) (Fc fusion, Tested as scFv-Fc (maxibody) with an Fc derived from human IgG1) VH: QVQLQESGPGLVKPSETLSLTCTVSGGYINNYYWSWIRQPPGKGLEWIGYIHYSGSTYYNPSLKSRVTISEDTSKNQFSLKLSSATAADTAVYYCARVGYYYDSSGYNLAWYFDLWGRGTLVTVSA VL: SSELTQDPAVSVALGQTVRITCQGDNLRSYSATWYQQKPGQAPVLVLFGENNRPSGIPDRFSGSKSGDTAVLTITGTQTQDEADYYCTSRVNSGNHLGVFGPGTQLTVL",
    "koff": "0.283 s⁻¹"
  }
]
